Assay: compound activity on host-cell Toxoplasma growth – dose response (AID 1259420);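 note: host cells were HeLa; final incubation lasted 72 hours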
Details: Toxoplasma gondii growth in host cells, no IFN-gamma; at 19.5 µM unless noted
About 250 (25%) of roughly 1,000 compounds were called active. About 31% were inconclusive and are not listed. The list is a sample of the results. Potency and affinity values are given separately.
readout.name: max activity

Exam item: Can you share its max activity? I mean this compound: `CN1C(=O)c2cc(NC(=O)Cc3cccs3)ccc2OC[C@@H]2O[C@H](CC(=O)N[C@@H]3CCN(Cc4ccccc4)C3)CC[C@@H]21`
Marked response: 32% (inactive)

Exam item: Can you share its max activity? I mean this compound: `COc1cccc(C(=O)Nc2ccc3c(c2)C(=O)N(C)[C@@H]2CC[C@H](CC(=O)N[C@H](C)c4ccccc4)O[C@@H]2CO3)c1`
Marked response: -19.3% [at 1.2 µM] (inactive)

Exam item: Can you share its max activity? I mean this compound: `COc1ccc(-c2nc(NCCN3CCN(C)CC3)c3ccccc3n2)cc1`
Marked response: 12.8% (inactive)

Exam item: Can you share its max activity? I mean this compound: `CN1C(=O)c2cc(NC(=O)Cc3cccs3)ccc2OC[C@@H]2O[C@H](CC(=O)NCC3CCCCC3)CC[C@@H]21`
Marked response: 9.14% [at 0.6 µM] (inactive)

Exam item: Can you share its max activity? I mean this compound: O=S1(=O)c2ccccc2C2(CCN(CC3CC3)C2)N1Cc1ccc(F)cc1 (stereo not drawn)
Marked response: 13.7% (inactive)

Exam item: Can you share its max activity? I mean this compound: `COc1ccc(-c2ccc([C@H]3[C@H]4CN(Cc5ccccc5)CC(=O)N4[C@H]3CO)cc2)cc1`
Marked response: 43.4% (inactive)

Exam item: Can you share its max activity? I mean this compound: `COc1ccc(-c2nc(NCCCN3CCCC3)c3ccccc3n2)cc1`
Marked response: 7.2% (inactive)

Exam item: Can you share its max activity? I mean this compound: `Cc1cccc(-c2ccc([C@@H]3[C@@H](CO)N4C(=O)CN(C(=O)c5ccc6c(c5)OCO6)C[C@H]34)cc2)c1`
Marked response: -5.13% [at 0.3 µM] (inactive)

Value source: PubChem BioAssay AID1259420
